# assayed.system: Mineralocorticoid receptor (Homo sapiens) (UniProt P08235)
# Sequence (whole entry): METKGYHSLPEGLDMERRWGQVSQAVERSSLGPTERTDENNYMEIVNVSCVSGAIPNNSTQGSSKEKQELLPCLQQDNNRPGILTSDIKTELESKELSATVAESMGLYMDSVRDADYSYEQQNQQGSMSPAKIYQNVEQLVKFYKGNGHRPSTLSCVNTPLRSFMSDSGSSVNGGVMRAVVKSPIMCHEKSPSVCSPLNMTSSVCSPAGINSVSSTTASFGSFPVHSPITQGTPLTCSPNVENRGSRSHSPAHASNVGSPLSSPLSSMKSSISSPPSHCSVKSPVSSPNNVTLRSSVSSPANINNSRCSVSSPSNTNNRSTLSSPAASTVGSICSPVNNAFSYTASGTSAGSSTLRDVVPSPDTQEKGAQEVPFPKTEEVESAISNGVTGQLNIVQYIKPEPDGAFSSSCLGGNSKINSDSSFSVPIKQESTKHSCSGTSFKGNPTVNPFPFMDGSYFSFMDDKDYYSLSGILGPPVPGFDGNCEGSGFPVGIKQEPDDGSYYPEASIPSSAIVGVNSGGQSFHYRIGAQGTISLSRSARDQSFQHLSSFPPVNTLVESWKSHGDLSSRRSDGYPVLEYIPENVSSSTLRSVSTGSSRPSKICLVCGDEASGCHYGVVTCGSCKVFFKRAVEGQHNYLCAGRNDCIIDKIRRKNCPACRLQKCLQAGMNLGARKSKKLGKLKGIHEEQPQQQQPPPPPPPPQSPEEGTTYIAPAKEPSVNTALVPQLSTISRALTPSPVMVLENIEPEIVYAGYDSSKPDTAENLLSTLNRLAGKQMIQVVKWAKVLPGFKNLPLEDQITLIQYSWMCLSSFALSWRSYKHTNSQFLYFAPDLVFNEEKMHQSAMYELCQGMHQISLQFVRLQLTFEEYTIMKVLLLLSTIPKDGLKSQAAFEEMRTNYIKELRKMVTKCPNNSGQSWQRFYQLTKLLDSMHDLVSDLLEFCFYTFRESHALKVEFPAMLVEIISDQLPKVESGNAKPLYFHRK
# assay.summary: Displacement of [3H]aldosterone from mineralocorticoid receptor of rabbit kidney
# condition.summary: Oryctolagus cuniculus; target entry is the homologue from another species
measure: RBA (%)

// worked examples, RBA included
compound: C=C/C=C1\C[C@@]2(C)C(CC[C@@]23CCC(=O)O3)C2CCC3=CC(=O)CCC3=C12 (some centres undefined)
measure: RBA
test.value: 2
--
compound: COCCC[C@H]1C[C@@]2(C)C(CC[C@@]23CCC(=O)O3)C2CCC3=CC(=O)CCC3=C21 (some centres undefined)
measure: RBA
test.value: 0.5
--
compound: C=C[C@H]1C[C@@]2(C)C(CC[C@@]23CCC(=O)O3)C2CCC3=CC(=O)CCC3=C21 (some centres undefined)
measure: RBA
test.value: 14

a. CC(=O)S[C@@H]1CC2=CC(=O)C=C[C@]2(C)[C@H]2CC[C@@]3(C)[C@@H]([C@@H]4C[C@@H]4[C@@]34CCC(=O)O4)[C@H]12
b. C/C=C1\C[C@@]2(C)C(CC[C@@]23CCC(=O)O3)C2CCC3=CC(=O)CCC3=C12 (some centres undefined)
Please choose the item with the lower RBA value from this pair: a and b Write down the label of the entry you select. b
(b: 7%, a: 21%)

P. C[C@]12CCC(=O)C=C1CC[C@@H]1[C@@H]2[C@@H](O)C[C@]2(C=O)[C@@H](C(=O)CO)CC[C@@H]12
Q. C[C@H]1C[C@@]2(C)C(CC[C@@]23CCC(=O)O3)C2CCC3=CC(=O)CCC3=C21 (some centres undefined)
R. C[C@@H]1C[C@H]2[C@@H]3CCC4=CC(=O)C=C[C@]4(C)[C@@]3(F)[C@@H](O)C[C@]2(C)[C@@]1(O)C(=O)CO
S. CC(=O)S[C@@H]1CC2=CC(=O)CC[C@]2(C)[C@H]2CC[C@@]3(C)[C@@H](CC[C@@]34CCC(=O)O4)[C@H]12
T. C[C@]12CCC(=O)C=C1C=C[C@@H]1[C@@H]2CC[C@@]2(C)[C@H]1CC[C@@]21CCC(=O)O1
Endpoint returns the given compounds ordered by ascending RBA. Provide the labels, sequenced as the question asks. T, S, Q, R, P
(T: 1%, S: 4%, Q: 6%, R: 20%, P: 100%)

a. C=C=C[C@H]1C[C@@]2(C)C(CC[C@@]23CCC(=O)O3)C2CCC3=CC(=O)CCC3=C21 (some centres undefined)
b. C[C@]12CCC3=C4CCC(=O)C=C4CCC3C1CC[C@@]21CCC(=O)O1 (some centres undefined)
Please choose the item with the lower RBA value from this pair: a and b Write down the label of the entry you select. b
